B1: CPEB3 Ribozyme (parent)
chain: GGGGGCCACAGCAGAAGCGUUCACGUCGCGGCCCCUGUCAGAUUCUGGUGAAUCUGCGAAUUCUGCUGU

variants of: B1; assay: self-cleavage, relative activity (ratio to wild type); higher = more cleavage; co-transcriptional
Endpoint: self-cleavage
Give a plain numeric answer without units written out.

So what's the measured self-cleavage for this one? U62A C63U
0.705

Also, A13C C22A please.
0.0721

How about G5C U69C ?
0.568

For G41A G47U then?
0.98

Lookup U49G C66A
0.891

Would you mind doing U20C G56C as well?
0.203

Can you check C18G A59C next?
0.149

Also U43G G47U ?
0.999

Would you kindly repeat that for G37A U61C ?
0.149

What do you have for G14A G65A ?
0.258

Query U55C G68A next
0.961

// query: G2C A42U
0.0317

Ok, now C22G G68A
0.267

Next entry: C9G G50U
1.02

Likewise for A23C G56U ?
0.88

Proceed to C33A U43A
0.311

Also check C29A C33U
0.594

And for G1A A60G ?
0.0623

// next record G19A C45A
0.121

Further, for C27G C57U ?
0.189

What do we get for G2U C54A ?
0.0587

Please answer likewise for A51U G56A
0.889

Values compiled from the RNAGym collection of RNA variant scans (doi:10.7554/elife.80360).
